Here, each record is paired with measured GI50 data.
Tested on: MDA-MB-468 breast
experimental.details: NCI tumour cell line growth inhibition, 48 h

{"compound": "O=C1C(Nc2ccc(Cl)cc2)=C(I)C(=O)c2ncccc21", "GI50": "1.51 µM"}
{"compound": "CN(C)CCOc1ccc(C(=O)C2[C@H](c3ccc(Cl)cc3)[C@@H](c3ccccc3)NC23C(=O)Nc2ccc(Br)cc23)cc1 (some centres undefined)", "GI50": "2.4 µM"}
{"compound": "O=C(N/N=C/C=C/c1ccc([N+](=O)[O-])o1)c1cc2ccccc2cc1O", "GI50": "1.36 µM"}
{"compound": "CN(C)CCN1C(=O)c2c(c3c4ccccc4n4c3c3c2c2ccccc2n3C2CC(O)C(O)C4(C)O2)C1=O (centres undefined)", "GI50": "1.52 µM"}

These measurements were taken from PubChem BioAssay (NCI).
